Hey, just so you know, these numbers are from the supplement of paper PMC9170038.

# System: MS2 coat protein
# Assay text: apparent KD of MS2 coat protein; higher = weaker reporter binding
# Assay conditions: Eterna round: R107; input ligand: theophylline 2 mM
Attribute measured: apparent KD of MS2 coat protein (nM)

Residue sequence	Value
UUACCGUAAGGUAUACCGGUCCACAAUAAUCGAGGACCGGUACGGCCGCCACUCGAUGUGUGAUCACAUGAGGAUCACCCAUGUA [Tryptophan A 20]	562
AAGAACCAGACGGCCGCCACUGGCCAGACAGGGUUCAUGGAAACAUGAGGAUCACCCAUGUCUUCCAGGACCGGGUCUGAAGAGG [Esbiisin]	9.33
AAUGUAUGGCACAUGAGGAUCACCCAUGUGCGAGGACCGGUACGGCCGCCACUCGGUCGUGGGUUCUUAUUACUAUACAUUAAUG [XTryp A #14]	11.6
AACAUGAGGAUCACCCAUGUCCCAUGUGAACGAGGACCGGUACGGCCGCCACUCGACUGAGGCGGCACAUGAGGAUCACCCACAU [whbob_SS_trypto A_2s12]	269
CAGGUCAGGGCGGCCGCCACUGUGGCUACGGUACAUGAGGAUCACCCAUGUUUGUGGUUGAUCUACAGGACCGGGCCCUAACACG [Beabe]	757
UGGCAAGAGGGAAGGAGCGUCAGCUGAGUCACAUGAGGAUCACCCAUGUCGCACAUAGUGUGACAGGUAGGUCGCCCUCUGCCGU [Vesosocera]	207
AGACGAGCAAUCAACGGGCGUUUCGUGACGCGAGGACCGGUACGGCCGCCACUCGAGUCUGGACAUGAGGAUCACCCAUGUUAUG [theeternabot_exclusion_MS2_Trp_A_46]	41
GGGCGAGUGGAGCGGCGUGCUCCGCUCCGUCGAGGACCGGUACGGCCGCCACUCGACAUGAGGAUCACCCAUGUGCGAGCUCGCG [#1 Exclusion - Tryptophan A Attempt #13 (HarryS)]	58.6
GUCGUGGUCGGAAGGAGCGACAUGAGGAUCACCCAUGUCUCCCGUUAUGGGAGUUCCUUAGGUCAGGUAGGUCGCCGACUGCGGC [#1 Exclusion - Arginine B Attempt #23 (Inspired by Omei)]	276
CUCUGAGUCCGUAAGGACUCAGAGGCGGAUACCAGCGAGGUCCAUCGCCCUUGGCAGCCGAACAUGAGGAUCACCCAUGUCGGUA [#1 Same State - Theophylline A Attempt #25 (HarryS)]	19.8
UUAUAAGUACCGGUCCUCAGAUCCUCAUGACGAGGACCGGUACGGCCGCCACUCGAAACAUGAGGAUCACCCAUGUAAUAAUAUC [Brourdmod09]	59.3
CACGGCCAUGAGGAUCACCCAUGGAAUAAUCGAGGACCGGUACGGCCGCCACUCGUGGACCGUGACCUGUACGAAAAGUGCAGGA	26.9
UUGUUGUUUGGAAGGAGCGUGGAUGAGUGUGGACAUGAGGAUCACCCAUGUUGGAUGAUACCGCAGGUAGGUCGCCGGGUGGUGG [11.aD]	300
UAUCCACAUGAGGAUCACCCAUGUAGGGAAGGAGCGGUGAUUUCACCAGGUAGGUCGCCUUACUGAGGAGAACCGGUGGAAUCGU [Exclusion - Arginine A (Freestyle 30)]	75.9
AAGAUAAGUACUGAUACCAGAGACAUGAGGAUCACCCAUGUCAAAUAAUAAUACCUCAGACUCCCUUGGCAGCAGGAUAAAUGAG [Exclusion Theophylline B GF1]	19.2
AUGGACGACGAUCUGGGAAAACCAGAUCGACGAGGACCGGUACGGCCGCCACUCGUGUUUAUUUAACAUGAGGAUCACCCAUGUA [#13 Tryptophan A Same State]	65.5
CAUGACAUGAGGAUCACCCAUGUAUCCAGUCGAGGACCGGUACGGCCGCCACUCGGUGCCUUCAAAUUUACAGACAGGUGACAGG [theeternabot_sameState_MS2_Trp_A_30]	39.6
ACAUGAGGAUCACCCAUGUGAUGGCACGAUACCAGCUGAUCCCGUGGCCCUUGGCAGCGUCCGGUGUGGUCCGGCGGGUGGGACG [qqwmullin]	25.9
AGAGCAUUGACGGCCGCCACUCAUGUCACAUGAGGAUCACCCAUGUGAUGGGUGAUAGCCCGGUCGAGGACCGGGUCAAUGCUCA [Omei Tryp SS B v5]	20.6
CGAUAUAAGACGGCCGCCACUAUUAAGUAACAAAAUAAACAUGAGGAUCACCCAUGUACAUGGGAUAGGACCGGGUCCAAUAACG [A1]	166
GGGUGGUAGGCGGCCGCCACUGAUUUUCAUUCCUAGAUGACAUGAGGAUCACCCAUGUUUAUGGGCAGGACCGGGCCUGCUGUGG [aaaV]	79.9
AACGUAUACAGAAGGAGCGUGAUUUAUAUUACUCAUUCAUAUACAUGAGGAUCACCCAUGUCACAGGUAGGUCGCUGUAUUCGUA [JR_ExcArginiB_Sub021]	157
ACAUGAGGAUCACCCAUGUAAGAUGCAGAAGGAGCGGGAAAUAACCCAGGUAGGUCGCUGCGGUUUGGAUUAUUGUGUUCGUGAA [#08 Exclusion - Arginine A]	13.8
